# Tested on: CAKI-1
# protocol.description: NCI tumour cell line growth inhibition, 48 h
The source made the active and inactive calls. No stated cut-off is given here; in the data, active = GI50 up to about 1.1 µM and inactive = higher.
Classes used: 1 for active, -1 for inactive

compound | assigned.label
CN(C)CCN1C(=O)c2cccc3cc([N+](=O)[O-])cc(c23)C1=O [MITONAFIDE] | 1
O=C(Nc1cccs1)c1c(O)[nH]c(=S)[nH]c1=O | -1
CC(NC(=O)c1ccccc1)NC(=O)C(C)C(=O)Nc1ccccc1 (configuration not stated) | -1
O=C1[C@H]2ON(c3ccccc3)C(c3ccc([N+](=O)[O-])cc3)[C@H]2C(=O)N1c1ccc(Cc2ccc(N3C(=O)[C@@H]4ON(c5ccccc5)C(c5ccc([N+](=O)[O-])cc5)[C@@H]4C3=O)cc2)cc1 (some centres not stated) | -1
Nc1nc[n+](Cc2ccccc2)c2ncn(Cc3ccccc3)c12 | -1
COc1cc(C)cc2c1c(=O)c1ccccc1n2C | -1
Cc1ccccc1/N=N/C(C(=O)c1ccccc1)C(=O)c1ccccc1 | -1
COC(=O)C1CC/C(=N/C2c3ccccc3-c3ccccc32)N1 (configuration not stated) | -1
N#CC(C(=O)/C(=N\NC(N)=O)C(C#N)c1ccccc1)c1ccccc1 (configuration not stated) | -1
COc1cc2c3cc1Oc1c(OC)c(OC)cc4c1C(Cc1ccc(O)c(c1)Oc1ccc(cc1)CC3N(C)CC2)N(C)CC4 (configuration not stated) | -1
O=C(CCCCCCC(=O)Nc1cccnc1)NO [PYROXAMIDE] | -1
Cc1c(/C=N/NC(=S)Nc2ccc(Cl)cc2)c(=O)n(-c2ccccc2)n1C | -1

---

# Test system: OVCAR-3
# protocol.description: NCI tumour cell line growth inhibition, 48 h
Activity calls are given as the source filed them. No stated cut-off is given here; in the data, active = GI50 up to about 1.1 µM and inactive = higher.
value.type: GI50

molecule | obs.value
CCCCCCCCCCCCCCNC(=O)CCC(NC(=O)c1ccc(N(C)Cc2cnc3nc(N)nc(N)c3n2)cc1)C(=O)NCCCCCCCCCCCCCC (centres undefined) | 13.4 µM (inactive)
O=c1c2cc([N+](=O)[O-])cnc2sn1-c1ccc(Oc2ccccc2)cc1 | 36 µM (inactive)
COc1ccc(-c2nc(O)c3ccccc3n2)cc1OC | > 100 µM (inactive)
O=[N+]([O-])c1ccc(C2CC(c3ccccc3Cl)=Nc3ccccc3S2)cc1 (centres undefined) | 8.79 µM (inactive)

---

# Tested on: OVCAR-5
# protocol.description: NCI tumour cell line growth inhibition, 48 h
Calls of active or inactive are those of the source. Rule as the data show it: active = GI50 up to about 1.1 µM and inactive = higher.
Classes used: t = active, f = inactive

compound | assigned.label
NN/C(=N\S(=O)(=O)c1cc2ccccc2o1)Nc1ccc(Cl)cc1 | f
Cc1noc(-c2ccc(C(=O)O)[nH]2)c1Br | f
CC(=O)OC1COC(N2C(=O)/C(=N\NC(N)=S)c3cc(Br)ccc32)C(OC(C)=O)C1OC(C)=O (stereo not drawn) | f
CO[C@@H]1C=C[C@@]23c4cc5c(cc4C(=O)O[C@H]2CN(C)[C@H]3C1)OCO5 | f
Oc1ccccc1C(Sc1nc2ccccc2s1)Sc1nc2ccccc2s1 | f
Cc1c(CCCl)c(=O)n2c([nH]c3ccccc32)c1C#N | f
CC(C)(C)c1cc(COc2cc(COc3ccc(-c4c5c(nc6c4CCc4ccc(-c7c8ccccc8nc8ccccc78)cc4-6)-c4cc(-c6c7ccccc7nc7ccccc67)ccc4CC5)cc3)cc(OCc3cc(C(C)(C)C)cc(C(C)(C)C)c3)c2)cc(C(C)(C)C)c1 | f
O=c1[nH]c2ccc(CC(=S)N3CCCCC3)cc2s1 | f
CCCCCCCCCCCCCCCCCCOCC(O)CO (stereo not drawn) | f
CC(=O)NNc1nc(C)c(C(=O)NNC(=O)C(=O)Nc2c(C)cccc2C(C)C)s1 | f
COC(=O)C(=Cc1cc(OC)c(OC)c(OC)c1-c1cc2c(cc1C(C)=O)OCO2)C(=O)OC | f
COc1cc(/C=N/n2c(Cc3ccc(Cl)cc3)n[nH]c2=O)cc(OC)c1OC | f
O=C(Nc1cccc([N+](=O)[O-])c1)/C(=N\NC(=O)c1ccncc1)c1nc2ccc([N+](=O)[O-])cc2nc1O | f
Cn1c(NN)nc(-c2ccc([N+](=O)[O-])cc2)c(C#N)c1=O | f
O=C1NC(=O)C2(CCC(O)C2)c2cc[n+]([O-])cc21 (stereo not drawn) | f
CCCCCCCCCCCCCC1=C(O)C(=O)C(CC2=C(O)C(=O)C(CCCCCCCCCCCCC)=C(O)C2=O)=C(O)C1=O | f
C=CC(=O)N1C/C(=C\c2ccc(F)cc2)C(=O)/C(=C/c2ccc(F)cc2)C1 | t
O=C(NC(=O)c1cn(CCN2CCNCC2)c(=O)[nH]c1=O)OCc1ccccc1 | f
CCNCC(=O)O[C@]1(CC)C(=O)OCc2c1cc1n(c2=O)Cc2cc3ccccc3nc2-1 | t
C[C@H](NC(=O)c1ccc(CNC(=O)/C=C/c2cccc(Oc3ccccc3)c2)cc1)c1ccccc1 | f
CCCCCCCCCCCCCC(=O)OCC1OC(OC)C(NC(=O)N(CCCl)N=O)C(O)C1O (stereo not drawn) | f
C1CNCCNCCN1 | f
CCOC(=O)/C1=C(\C)N(Cc2ccccc2)C(=O)c2ccccc2C(=O)c2c(OC(C)=O)ccc(OC(C)=O)c21 | f

---

GI50 values for the compounds below.
# System: SF-295
# protocol.description: NCI tumour cell line growth inhibition, 48 h
Calls of active or inactive are those of the source. No stated cut-off is given here; in the data, active = GI50 up to about 1.1 µM and inactive = higher.

compound | system | GI50
COc1cc(/C=N\NC(=O)C[N+](C)(C)C)cc(OC)c1OC | SF-295 | > 10 µM (inactive)
CCOC(=O)C(NC(=O)CC)(Nc1ccccc1F)C(F)(F)F (centres undefined) | SF-295 | > 100 µM (inactive)
O=C1N=C2Sc3ccc4ccccc4c3N2C1=O | SF-295 | 18.6 µM (inactive)
Cc1ccc([N+](=O)[O-])cc1S(=O)(=O)Nc1ccc(C2=NN(S(=O)(=O)c3cc([N+](=O)[O-])ccc3C)C(c3ccccc3O)C2)cc1 (centres undefined) | SF-295 | 34.4 µM (inactive)
Cc1ccc2c(sc(-c3ccc4c(c3)sc(-c3ccc(N(C)C)cc3)[n+]4C)[n+]2C)c1S(=O)(=O)O.Cc1ccc2c(sc(-c3ccc4c(c3)sc(-c3ccc5c(c3)sc(-c3ccc(N(C)C)cc3)[n+]5C)[n+]4C)[n+]2C)c1S(=O)(=O)O | SF-295 | > 100 µM (inactive)
CCCCC/C=C1\CC(CO)(COC(=O)CC(C(C)C)C(C)C)OC1=O (centres undefined) | SF-295 | 5.52 µM (inactive)
O=S(=O)(c1ccccc1)C1CN2OC1(S(=O)(=O)c1ccccc1)CC21CCCCC1 (centres undefined) | SF-295 | > 100 µM (inactive)
C[N+](C)(N)Cc1nc(-c2ccc(Cl)cc2)no1 | SF-295 | > 100 µM (inactive)
COc1ccccc1NC(=O)C1=C(C)NC(C)=C(C(=O)Nc2ccccc2OC)C1c1ccc(N(C)C)cc1 | SF-295 | 38 µM (inactive)

---

GI50 values for the molecules below.
# Test system: SW-620
# protocol.description: NCI tumour cell line growth inhibition, 48 h
Activity calls are given as the source filed them. No stated cut-off is given here; in the data, active = GI50 up to about 1.1 µM and inactive = higher.

molecule | GI50
CCOC(=O)Oc1ccc2[nH]c3c(C)cc(N)c(C)c3c2c1 | > 100 µM (inactive)
C=[N+](CNC(=O)CNC(=O)C(Cc1ccccc1)NC(=O)OC(C)(C)C)C(=O)CNC(=O)C(Cc1ccccc1)NC(=O)OC(C)(C)C (configuration not stated) | > 100 µM (inactive)
O=C(COc1cc(=O)oc2ccccc12)c1ccccc1 | 44.8 µM (inactive)
CC(=O)OC1CC2C(C)(C)C(=O)C=C[C@]2(C)C2CCC3(C)C(=CC(=O)C3c3ccoc3)[C@]12C (some centres not stated) | 10.5 µM (inactive)
CC(C)NCC(O)c1ccc(OCc2ccccc2)c(OCc2ccccc2)c1-c1ccccc1 (configuration not stated) | 1.63 µM (inactive)
COc1cc2cc3c4c(cc(OC)c(OC)c4c2cc1OC)CCN3C(=O)OCCBr | 60.8 µM (inactive)
COC(=O)/C(=N\N)C(C(=O)C(=O)Nc1nnc(S)[nH]1)c1nc2ccc([N+](=O)[O-])cc2nc1O (configuration not stated) | > 100 µM (inactive)

---

# System: MCF7
# protocol.description: NCI tumour cell line growth inhibition, 48 h
The source made the active and inactive calls. Rule as the data show it: active = GI50 up to about 1.1 µM and inactive = higher.
GI50 values for the compounds below.

compound | GI50
Oc1ccccc1C(Sc1nc2ccccc2s1)Sc1nc2ccccc2s1 | > 100 µM (inactive)
COc1cc(-c2oc3c(OC)c(O)c(OC)c(O)c3c(=O)c2OC)ccc1O | 28.9 µM (inactive)
C[C@H](NC(=O)c1ccc(CNC(=O)/C=C/c2cccc(Oc3ccccc3)c2)cc1)c1ccccc1 | > 100 µM (inactive)
CSc1nc(C)c2c(n1)N(c1ccc(Cl)cc1)CC2 | > 100 µM (inactive)
Cc1cc2nc3c(N)nn(CCCN(C)C)c3nc2cc1C | 33.4 µM (inactive)
CCCCCCCCCCCCCCNC(=O)CCC(NC(=O)c1ccc(N(C)Cc2cnc3nc(N)nc(N)c3n2)cc1)C(=O)NCCCCCCCCCCCCCC (stereo not drawn) | 4.48 µM (inactive)
Nc1ccn([C@H]2CO[C@@H](CO)O2)c(=O)n1 | 1.48 µM (inactive)
Cc1cn([C@@H]2O[C@H](CO[Si](C)(C)C(C)(C)C)[C@]3(O[C@H]3C(=O)NN)[C@H]2O[Si](C)(C)C(C)(C)C)c(=O)[nH]c1=O | 4.26 µM (inactive)

This collection of values is drawn from ChEMBL document CHEMBL1201862.
